Test system: EJM
EXPERIMENT_DESCRIPTION: In vitro cytotoxicity, EJM (Multiple Myeloma)
Type: cell-based
EXPERIMENTAL_PARAMETERS: Homo sapiens, 72 h, CellTiter-Glo 2.0, read-out: Cytotoxicity IC50, EJM
MEASURED_ENDPOINT: IC50
Answer shape: numeric part, then the unit.

{"COMPOUND": "CCOC(=O)[C@H](Cc1ccc(F)cc1)NC(=O)[C@H](CCc1nc2cc(N(CCCl)CCCl)ccc2n1C)NC(C)=O [Example 34]", "VALUE": "637 nM"}
{"COMPOUND": "CC(C)C[C@H](NC(=O)[C@@H](N)CCc1nc2cc(N(CCCl)CCCl)ccc2n1C)C(=O)N(C)C [Example 30]", "VALUE": "173 nM"}

Given item N[C@@H](Cc1ccc(N(CCCl)CCCl)cc1)C(=O)O [Melphalan, melphalan, reference compound] , the value recorded as its IC50 is 40000 nM

###

System: MM.1S cells
EXPERIMENT_DESCRIPTION: In vitro cytotoxic potency in MM.1S cell viability assay (CellTiter-Glo)
Type: cell-based, human
EXPERIMENTAL_PARAMETERS: Homo sapiens, MM1.S; 72 h, CellTiter-Glo 2.0; read-out: MM.1S IC50
MEASURED_ENDPOINT: pIC50
Field pIC50 (float): negative decimal logarithm of the concentration in molar.

pIC50 of CS(=O)(=O)OCCCCOS(C)(=O)=O [Busulfan, busulfan, reference compound] , assay on MM.1S cells, is 3.74

###

System: HG-3
EXPERIMENT_DESCRIPTION: In vitro cytotoxicity, HG-3 (Chronic Lymphocytic Leukemia)
Format: cell-based
EXPERIMENTAL_PARAMETERS: Homo sapiens, HG-3, 72 h, read-out: Cytotoxicity IC50, HG-3
MEASURED_ENDPOINT: IC50 (nM)
Respond with the bare value in nM.

Solved entries:
{"COMPOUND": "Cn1c(CCCC(=O)O)nc2cc(N(CCCl)CCCl)ccc21 [Bendamustine, bendamustine, reference compound]", "ASSAY_SYSTEM": "HG-3", "VALUE": 25800}
{"COMPOUND": "CCOC(=O)[C@H](CC(C)C)NC(=O)[C@@H](N)CCc1nc2cc(N(CCCl)CCCl)ccc2n1C", "ASSAY_SYSTEM": "HG-3", "VALUE": 25.7}
{"COMPOUND": "CCOC(=O)[C@H](Cc1ccc(F)cc1)NC(=O)[C@@H](N)CCc1nc2cc(N(CCCl)CCCl)ccc2n1C", "ASSAY_SYSTEM": "HG-3", "VALUE": 25.7}

Now let's try a different one.
Given item CCOC(=O)[C@H](Cc1nc2cc(N(CCCl)CCCl)ccc2n1C)NC(=O)[C@@H](N)CC(C)C , the value recorded as its IC50 is 71.3

###

Test system: MM.1S cells
EXPERIMENT_DESCRIPTION: In vitro cytotoxic potency in MM.1S cell viability assay (CellTiter-Glo)
Format: cell-based, human
EXPERIMENTAL_PARAMETERS: 72 h, CellTiter-Glo 2.0; read-out: MM.1S IC50
Overview of recorded IC50 for various compounds
Respond with the bare value in µM.

{"COMPOUND": "O=P1(N(CCCl)CCCl)NC(OO)CCO1 (centres unmarked) [4-hydroperoxy cyclophosphamide, reference compound]", "ASSAY_SYSTEM": "MM.1S cells", "IC50 [µM]": 7.3}

Now let's try a different one.
Given item COCC(C)OC(=O)[C@H](CC(C)C)NC(=O)[C@@H](N)CCc1nc2cc(N(CCCl)CCCl)ccc2n1C (some centres unmarked) [Example 29] , the value recorded as its IC50 is 0.0014

###

Overview of recorded IC50 for various compounds
Tested on: MM.1S cells
EXPERIMENT_DESCRIPTION: In vitro cytotoxic potency in MM.1S cell viability assay (CellTiter-Glo)
Assay type: cell-based, human
EXPERIMENTAL_PARAMETERS: Homo sapiens, MM1.S, 72 h, read-out: MM.1S IC50
Respond with the bare value in nM.

Given item CCOC(=O)[C@H](Cc1ccc(F)cc1)NC(=O)[C@@H](N)CCc1nc2cc(N(CCCl)CCCl)ccc2n1C , the value recorded as its IC50 is 7.8

Given item CCOC(=O)[C@H](Cc1nc2cc(N(CCCl)CCCl)ccc2n1C)NC(=O)[C@@H](N)Cc1ccc(F)cc1 , the value recorded as its IC50 is 14.7

Given item CCOC(=O)[C@H](Cc1nc2cc(N(CCCl)CCCl)ccc2n1C)NC(=O)[C@@H](N)C(C)C , the value recorded as its IC50 is 12.5

Given item N[C@@H](CCc1nc2cc(N(CCCl)CCCl)ccc2n1-c1ccccc1)C(=O)O , the value recorded as its IC50 is 16500

###

Test system: SUP-T1
EXPERIMENT_DESCRIPTION: In vitro cytotoxicity, SUP-T1 (T cell Lymphoma)
Format: cell-based
EXPERIMENTAL_PARAMETERS: Homo sapiens, SUP-T1; 72 h, CellTiter-Glo 2.0; read-out: Cytotoxicity IC50, SUP-T1
MEASURED_ENDPOINT: IC50 (nM)
Respond with the bare value in nM.

Given item N[C@@H](Cc1ccc(N(CCCl)CCCl)cc1)C(=O)O [Melphalan, melphalan, reference compound] , the value recorded as its IC50 is 2960

###

Test system: MM.1S cells
EXPERIMENT_DESCRIPTION: In vitro cytotoxic potency in MM.1S cell viability assay (CellTiter-Glo)
Type: cell-based, human
EXPERIMENTAL_PARAMETERS: Homo sapiens, MM1.S, 72 h, read-out: MM.1S IC50
Overview of recorded IC50 for various molecules
Answer shape: numeric part, then the unit.

Solved entries:
{"MOLECULE": "CCOC(=O)[C@H](CCc1nc2cc(N(CCCl)CCCl)ccc2n1C)NC(=O)[C@@H](CC(C)C)NC(=O)[C@@H](N)Cc1ccc(F)cc1 [Example 21]", "IC50": "26.6 nM"}
{"MOLECULE": "CCOC(=O)[C@H](Cc1nc2cc(N(CCCl)CCCl)ccc2n1C)NC(=O)[C@@H](N)CC(C)C [Example 10]", "IC50": "19.2 nM"}
{"MOLECULE": "COC(=O)[C@H](CC(C)C)NC(=O)[C@@H](N)Cc1nc2cc(N(CCCl)CCCl)ccc2n1C [Example 14]", "IC50": "8.7 nM"}

Given item CCOC(=O)[C@@H](CC(C)C)NC(=O)[C@@H](N)CCc1nc2cc(N(CCCl)CCCl)ccc2n1C [Example 45] , the value recorded as its IC50 is 512 nM

Given item Cn1c(CC[C@H](N)C(=O)O)nc2cc(N(CCCl)CCCl)ccc21 [Example 18] , the value recorded as its IC50 is 20200 nM

Given item CC(C)C[C@H](NC(=O)[C@@H](N)Cc1nc2cc(N(CCCl)CCCl)ccc2n1C)C(=O)OC(C)C [Example 15] , the value recorded as its IC50 is 9.1 nM

Given item CC(C)C[C@H](NC(=O)[C@@H](N)CCc1nc2cc(N(CCCl)CCCl)ccc2n1C)C(=O)O [Example 20] , the value recorded as its IC50 is 5750 nM

Given item CCOC(=O)[C@H](CCc1nc2cc(N(CCCl)CCCl)ccc2n1C)NC(=O)[C@H](CC(C)C)NC(=O)[C@@H](N)Cc1ccc(F)cc1 [Example 16] , the value recorded as its IC50 is 25 nM

Given item CCOC(=O)[C@H](CC(C)C)NC(=O)[C@H](Cc1nc2cc(N(CCCl)CCCl)ccc2n1C)NC(C)=O [Example 35] , the value recorded as its IC50 is 86.7 nM

Given item O=C(O)CCCc1ccc(N(CCCl)CCCl)cc1 [Chlorambucil, chlorambucil, reference compound] , the value recorded as its IC50 is 6870 nM

Given item Cn1c(CCCC(=O)O)nc2cc(N(CCCl)CCCl)ccc21 [Bendamustine, bendamustine, reference compound] , the value recorded as its IC50 is 24000 nM

Given item CC(C)C[C@H](NC(=O)[C@@H](N)CCc1nc2cc(N(CCCl)CCCl)ccc2n1C)C(=O)OCCCN(C)C [Example 28] , the value recorded as its IC50 is 352 nM

Given item CCOC(=O)[C@H](CC(C)C)NC(=O)[C@@H](N)CCc1nc2cc(N(CCCl)CCCl)cnc2n1C [Example 48] , the value recorded as its IC50 is 205 nM

Given item CC(C)C[C@H](NC(=O)[C@@H](N)CCc1nc2cc(N(CCCl)CCCl)ccc2n1C)C(=O)OC(C)C [Example 26] , the value recorded as its IC50 is 6.8 nM

Given item CCOC(=O)[C@@H](NC(=O)[C@@H](N)CCc1nc2cc(N(CCCl)CCCl)ccc2n1C)C(C)C [Example 3] , the value recorded as its IC50 is 6.8 nM
